Source listed as the supplement of paper PMC6555819.

Field: PBM binding z-score. Provide a value for each of the sequences that follow.
- Tested on: LXRb:RXRa (NR concentration 270 nM, RXRa partner concentration 90 nM)
- protocol_summary: PBM binding z-score (relative to random genomic background probes); higher = stronger binding; sequences stand for … in GC…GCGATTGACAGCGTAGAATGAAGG

Worked cases, PBM binding z-score given:
| sequence_code | PBM binding z-score |
| --- | --- |
| TGAATGAGGTTATAACATCAGGGAACGTTGCAAA | 1.2 |
| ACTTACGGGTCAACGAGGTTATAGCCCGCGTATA | 4.32 |

Below: the item to evaluate.
Ask: Sample "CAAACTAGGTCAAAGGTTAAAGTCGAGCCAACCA" — what was its PBM binding z-score?
Result: 5.56

----------
- Test system: VDR homodimer (NR concentration 270 nM)
- protocol_summary: PBM binding z-score (relative to random genomic background probes); higher = stronger binding; sequences stand for … in GC…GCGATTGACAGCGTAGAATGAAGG
Field: PBM binding z-score. Provide a value for each of the sequences that follow.
One number for each entry.

Worked cases, PBM binding z-score given:
| sequence_code | PBM binding z-score |
| --- | --- |
| CAAACTAGGTCAAAAGTCAAAGTCGAGCCAACCA | 0.387 |
| CCGACTGGGGCAAGGTTACAATAACGCACAGCCA | 0.439 |
| ATATCTAGGTAAAGTTCAGTGAAAGATCGATAGA | 1.78 |
| AGAAGGAGGTTATTAAGATCAGGGAATTGCGGTC | 1.23 |
| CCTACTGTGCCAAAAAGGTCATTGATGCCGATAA | 3.38 |

# batch: return PBM binding z-score for each of the 2 sequences below
1. TAGACTAGGTCATGGGCCAGTATACCACGCGAAC
2. AATACAGGGTCACTAAGCCAGAGTAGGTACGAAT

Result:
1. 0.435
2. 2.35

----------
- System: PPARg:RXRa 90nM:30nM, anti-RXR (NR concentration 90 nM, RXRa partner concentration 30 nM)
- protocol_summary: PBM binding z-score (relative to random genomic background probes); higher = stronger binding; sequences stand for … in GC…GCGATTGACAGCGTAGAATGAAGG
assay_metric: PBM binding z-score
One number for each entry.

# batch: return PBM binding z-score for each of the 8 sequences below
1. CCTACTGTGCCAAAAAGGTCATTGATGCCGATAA
2. CGAACGAGTGCATGAGTTGATAGCAAATGCCGAT
3. TGAATGAGGTTAATGATCAGGGAACGTGGCGTCG
4. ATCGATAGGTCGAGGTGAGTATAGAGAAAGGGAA
5. GGAACGAGGGCAAAGTTGGTAGCATCTGTCGACG
6. CGAACTAGGTCATTGACAGGACAGTAAATAGTAA
7. CCTACTGGGCCATAAAGGTCATTGATGCCGATAA
8. ATCTCTAGGTAAAGATAGTTTAGTGAATGCAAAT

Result:
1: 3; 2: -0.142; 3: 1.17; 4: 0.369; 5: 5.44; 6: 5.8; 7: 4.45; 8: 0.329

# batch: return PBM binding z-score for each of the 5 sequences below
1. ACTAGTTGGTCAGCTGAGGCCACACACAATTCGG
2. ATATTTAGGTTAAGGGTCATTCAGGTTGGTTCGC
3. TCTCGGAGGACACGAAGGTCAGAGCGTTCCAGAG
4. CGGAGTAGGTTATGGGGCATTCAGGCAACGGTGA
5. ACTAGTTGGTCAGCTGAGGTCACTCACAATTCGG

Result:
-0.207
10.5
2.05
6.03
1.19

# batch: return PBM binding z-score for each of the 3 sequences below
1. CATACTAGGTCACGAAAGGTCAAAGTCGAATGAC
2. ATCTCTAGGTAAAAGTGCAGTGAATCCCGAGGAT
3. GCTGCTTGGTCAACTGATGGTCAGCTAAAGCTCG

Result:
8.01
6.27
-0.725

# batch: return PBM binding z-score for each of the 3 sequences below
1. GATCGGAGGACAAGGTCAGAGCTTTGTCCGTAGA
2. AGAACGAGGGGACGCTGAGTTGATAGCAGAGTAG
3. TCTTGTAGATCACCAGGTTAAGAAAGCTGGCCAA

Result:
1. 1.17
2. -0.258
3. 2.67

Ask: Sample "TCTTGTAGATCAACAGGAGGTTAAGATAGATCGA" — what was its PBM binding z-score?
Result: 1.53

----------
- System: PPARg homodimer (NR concentration 180 nM)
- protocol_summary: PBM binding z-score (relative to random genomic background probes); higher = stronger binding; sequences stand for … in GC…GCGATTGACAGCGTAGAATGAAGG
Class (by PBM binding z-score) -- low end = under -0.2, middle = from -0.2 up to 0.8, high end = 0.8 and over

The examples below pair each entry with its known result.
| sequence_code | class_assignment |
| --- | --- |
| CAAACTAGGTCACGGAGGTCAAAGTCCGTGCGTA | high end |
| AGAATGACGTTAAGATCAGGGAAACAGAATACAT | low end |
| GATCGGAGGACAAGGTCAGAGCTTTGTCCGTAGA | middle |
| TCTGCTATGTCAGTTGGTCAGCTAACGAGCTGCC | low end |

Ask: # bin label for "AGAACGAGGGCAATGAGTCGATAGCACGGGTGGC"
Result: middle

Ask: # bin label for "CCTAGTTGGTCAGGAGGTGACACACCGGATATGA"
Result: high end

Ask: # bin label for "ATCTCTAGGTAAGACTTAGTTCAGTGAAGAACGC"
Result: high end

Ask: # bin label for "ACTATTAGTTGACTTATGGCAACCGATACGACGC"
Result: high end

Ask: # bin label for "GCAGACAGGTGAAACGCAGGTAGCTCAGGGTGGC"
Result: low end

----------
- Tested on: PPARg DBDmut:RXRa IVT, anti-PPARg (DBD mutation: PPARg1 K132A/R137A, NR concentration 270 nM, RXRa partner concentration 90 nM)
- protocol_summary: PBM binding z-score (relative to random genomic background probes); higher = stronger binding; sequences stand for … in GC…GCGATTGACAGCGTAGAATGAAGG
assay_metric: PBM binding z-score
Give bare numbers.

| sequence_code | assay_metric | readout_number |
| --- | --- | --- |
| TAGCCTTGGTCATTCAGGGGCCAGTATAGAAAGC | PBM binding z-score | -0.367 |

# batch: return PBM binding z-score for each of the 2 sequences below
1. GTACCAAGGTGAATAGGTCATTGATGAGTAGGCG
2. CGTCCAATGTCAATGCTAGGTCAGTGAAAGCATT

Result:
1: 0.503; 2: -0.586

----------
Field: PBM binding z-score. Provide a value for each of the sequences that follow.
- Tested on: PPARg DBDmut:RXRa IVT, anti-PPARg (DBD mutation: PPARg1 K132A/R137A, NR concentration 270 nM, RXRa partner concentration 90 nM)
- protocol_summary: PBM binding z-score (relative to random genomic background probes); higher = stronger binding; sequences stand for … in GC…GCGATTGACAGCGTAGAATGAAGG

Worked cases, PBM binding z-score given:
| sequence_code | PBM binding z-score |
| --- | --- |
| CCGAGTAGGTTATGCGGCATTCAGGCAACGGTGA | -1.08 |
| CGTTACGGGTCACTCCAGGTTATAGCATCGGAGT | 0.311 |

Ask: Sample "CTACCAAGGTGAGCAAGGTCGTTGATTACTATTC" — what was its PBM binding z-score?
Result: -0.318

----------
- Test system: FXR:RXRa (NR concentration 270 nM, RXRa partner concentration 90 nM)
- protocol_summary: PBM binding z-score (relative to random genomic background probes); higher = stronger binding; sequences stand for … in GC…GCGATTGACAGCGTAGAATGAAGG
Class (by PBM binding z-score) -- 1 (below 0.2), 2 (0.2 to below 2), 3 (2 or more)

The examples below pair each entry with its known result.
| sequence_code | class_assignment |
| --- | --- |
| AGAATGAGGTTAGGATCAGGGAAACAGAATACAT | 2 |
| CAGACTGGGGCAAAGGTTACCATACTCAGTACGA | 3 |
| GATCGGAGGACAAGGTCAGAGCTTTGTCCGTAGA | 2 |
| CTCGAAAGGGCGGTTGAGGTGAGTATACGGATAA | 2 |
| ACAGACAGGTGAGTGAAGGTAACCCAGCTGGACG | 2 |

Ask: # bin label for "ATCAAAAGGTCGTGAGGTGAGTATACAGAAAGGC"
Result: 3

Ask: # bin label for "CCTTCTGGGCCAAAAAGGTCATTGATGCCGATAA"
Result: 3
